Hello, the source for this data is the supplement of paper PMC13380429, in case you need it.

# Test system: HepG2
# Protocol Summary: cell viability relative to DMSO; higher = less toxic
# Details: 72 h; 10 nM
Test Readout: cell viability (%)
Express the result in % but write the number alone.

Return cell viability (reported value) for this compound: C=CCN1C[C@H](C)N([C@H](c2ccc(C(=O)N(CC)CC)cc2)c2cccc(O)c2)C[C@H]1C
93.7

Return cell viability (reported value) for this compound: NCCCNCCSP(=O)(O)O
100

Return cell viability (reported value) for this compound: CC(C)(C)C(=O)OCOC(=O)[C@@H]1N2C(=O)C[C@H]2S(=O)(=O)C1(C)C
100

Return cell viability (reported value) for this compound: [O-][S+](c1ccccc1)c1ccc2nnnn2n1 (stereo not given)
102

Return cell viability (reported value) for this compound: Cc1cc(Nc2nc(N[C@@H](C)c3ccc(F)cc3)c(C#N)cc2F)n[nH]1
105
